# PROTOCOL SUMMARY: Determination of pKa of formulated lipids (TNS fluorescence)
# Type: physicochemical
# RUN CONDITIONS: probe 2-(p-toluidino)-6-naphthalenesulfonic acid (TNS), 1 µM final, vesicles of cationic lipid/DSPC/CH/PEG-c-DOMG 40:10:40:10, pH 2 to 11
MEASUREMENT KIND: pKa

[[record]]
molecule = "CCCCC/C=C\\C/C=C\\CCCCCCCCC1(CCCCCCCC/C=C\\CCCCCCCC)O[C@H]2C[C@H](N(C)C)C[C@H]2O1 (stereo partly shown) [ALNY-107]"
recorded_value = 6.63

[[record]]
molecule = "CCCCC/C=C\\C/C=C\\CCCCCCCCC1(CCCCCCCC/C=C\\C/C=C\\CCCCC)O[C@H]2C[C@H](N(C)C)C[C@H]2O1 [ALNY-100]"
recorded_value = 6.4

[[record]]
molecule = "CCCCC/C=C\\C/C=C\\CCCCCCCCC1(CCCCCCCC/C=C\\C/C=C\\CCCCC)O[C@H]2CN(C)C[C@H]2O1 [ALNY-104]"
recorded_value = 5.65

[[record]]
molecule = "CCCCC/C=C\\C/C=C\\CCCCCCCCC(CCCCCCCC/C=C\\C/C=C\\CCCCC)CNC(=O)OCCCN(C)C [ALNY-200]"
recorded_value = 7.57


###

# PROTOCOL SUMMARY: Determination of pKa of formulated lipids (TNS fluorescence)
# Assay type: physicochemical
# RUN CONDITIONS: probe 2-(p-toluidino)-6-naphthalenesulfonic acid (TNS), 1 µM final, vesicles of cationic lipid/DSPC/CH/PEG-c-DOMG 40:10:40:10, pH 2 to 11
MEASUREMENT KIND: pKa

[[record]]
compound = "CCCCC/C=C\\C/C=C\\CCCCCCCCC1(CCCCCCCC/C=C\\C/C=C\\CCCCC)O[C@H]2C[C@@H](N(C)C)C[C@H]2O1 [ALNY-101]"
recorded_value = 6.43

[[record]]
compound = "CCCCC/C=C\\C/C=C\\CCCCCCCCC1(CCCCCCCC/C=C\\C/C=C\\CCCCC)O[C@H]2C[C@@H](N(C)C)CC[C@H]2O1 [ALNY-102]"
recorded_value = 7.3

[[record]]
compound = "CCCCC/C=C\\C/C=C\\CCCCCCCC1OC(C)(CCN(C)C)OC1CCCCCCC/C=C\\C/C=C\\CCCCC (stereo not shown) [ALNY-152]"
recorded_value = 6.6

[[record]]
compound = "CCCCC/C=C\\C/C=C\\CCCCCCCCC(CCCCCCCC/C=C\\C/C=C\\CCCCC)OC(=O)NCCN(C)C [ALNY-190]"
recorded_value = 6.49


###

# PROTOCOL SUMMARY: Determination of pKa of formulated lipids (TNS fluorescence)
# Format: physicochemical
# RUN CONDITIONS: probe 2-(p-toluidino)-6-naphthalenesulfonic acid (TNS), 1 µM final, vesicles of cationic lipid/DSPC/CH/PEG-c-DOMG 40:10:40:10, pH 2 to 11
MEASUREMENT KIND: pKa

# annotated cases, reported pKa shown
[[record]]
compound = "CCCCC/C=C\\C/C=C\\CCCCCCCCC1(CCCCCCCC/C=C\\C/C=C\\CCCCC)O[C@H]2C[C@H](N(C)C)CC[C@H]2O1"
recorded_value = 6.98

[[record]]
compound = "CCCCC/C=C\\C/C=C\\CCCCCCCCC(CCCCCCCC/C=C\\C/C=C\\CCCCC)CNC(=O)OCCN(C)C"
recorded_value = 7.07

[[record]]
compound = "CCCCC/C=C\\C/C=C\\CCCCCCCCC(CCCCCCCC/C=C\\C/C=C\\CCCCC)NC(=O)OCCN(C)C"
recorded_value = 6.52

[[record]]
compound = "CCCCC/C=C\\C/C=C\\CCCCCCCC1OC2(CCN(C)CC2)OC1CCCCCCC/C=C\\C/C=C\\CCCCC (stereo not shown)"
recorded_value = 6.08

[[record]]
compound = "CCCCC/C=C\\C/C=C\\CCCCCCCCC1(CCCCCCCCCCCCCCCCCC)O[C@H]2C[C@H](N(C)C)C[C@H]2O1 (stereo partly shown)"
recorded_value = 6.55


1: CCCCC/C=C\C/C=C\CCCCCCCCC(CCCCCCCC/C=C\C/C=C\CCCCC)CNC(=O)CCN(C)C
2: CCCCC/C=C\C/C=C\CCCCCCCCC(CCCCCCCC/C=C\C/C=C\CCCCC)SSCCN(C)C
Req: Select the item whose pKa value is smaller, choosing between 1 and 2 . Reply with the label of the item you choose.
Resp: 2
